Source: ChEMBL document CHEMBL1131108

Here the recorded pEC50 is given for each entry.
species on record: Mus musculus; assay: Effective dose against Trypanosoma […]) trypomastigotes in mouse peritoneal macrophages; format: functional; settings: read-out: ED50 (the source's name)
When answering, recall that pEC50 equals minus log10 of the concentration in mol/L, and write that number alone.

| given_smiles | pEC50 |
| --- | --- |
| C/C(=N\OCc1ccccc1)c1ccc2c(c1)N(CCCN(C)C)c1cc(Cl)ccc1S2 | 5.46 |

Okay, now this compound:
Summary for this compound, C/C(=N/OCc1ccccc1)c1ccc2c(c1)N(CCCN(C)C)c1ccccc1S2 : pEC50 is 5.81

====

species on record: Mus musculus; experiment: Effective dose against Leishmania donovani (Leishmania donovani) amastigotes in mouse peritoneal macrophages; Range is 10-30 uM; type: functional; conditions: read-out: ED50 (the source's name)
parameter_measured: pEC50
pEC50 is defined as minus the log10 of a concentration measured in mol/L.

// field: pEC50; key: CCCC(=O)c1ccc2c(c1)N(CCCN(C)C)c1ccccc1S2 ; value = 5.00

====

biological target: Trypanothione reductase (Trypanosoma cruzi); experiment: Inhibitory activity against recombinant Trypanosoma cruzi (Trypanosoma cruzi) Trypanothione reductase; details: read-out: I50
Sequence (P28593 whole entry): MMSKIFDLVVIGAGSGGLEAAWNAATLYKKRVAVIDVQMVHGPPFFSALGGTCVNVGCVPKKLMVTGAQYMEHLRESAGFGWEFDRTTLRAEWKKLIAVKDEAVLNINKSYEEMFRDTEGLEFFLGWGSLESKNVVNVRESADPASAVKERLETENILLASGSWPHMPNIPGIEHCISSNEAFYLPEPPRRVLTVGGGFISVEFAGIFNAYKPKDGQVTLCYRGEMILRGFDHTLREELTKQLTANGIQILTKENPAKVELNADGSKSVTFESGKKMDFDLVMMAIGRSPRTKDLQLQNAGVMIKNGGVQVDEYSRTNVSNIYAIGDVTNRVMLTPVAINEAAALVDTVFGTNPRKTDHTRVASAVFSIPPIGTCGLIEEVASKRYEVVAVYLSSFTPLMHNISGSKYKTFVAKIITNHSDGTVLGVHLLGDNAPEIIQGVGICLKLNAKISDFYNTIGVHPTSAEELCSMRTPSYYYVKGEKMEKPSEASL
Reported pIC50 values follow for various molecules
As a rule, pIC50 stands for the negative log10 of the concentration, concentration in M.

Use these answered entries as a reference point.
| molecule | pIC50 |
| --- | --- |
| CC(=O)N1c2ccccc2Sc2ccc(C(=O)CCl)cc21 | 3.36 |
| CCCCCC(=O)c1ccc2c(c1)N(CCCN(C)C)c1ccccc1S2 | 3.77 |
| CN(C)CCCN1c2ccccc2[S+]([O-])c2ccc(Cl)cc21 (stereo unspecified) [CHLOROPROMAZINE SULFOXIDE] | 4.12 |
| CN(C)CCCN1c2ccccc2Sc2ccc(/C=N/O)cc21 | 3.84 |

# molecule CC(=O)c1ccc2c(c1)N(C(C)=O)c1cc(Cl)ccc1S2 ; its pIC50 = 3.40

Per the record, CN(C)C(C)(C)CN1c2ccccc2Sc2ccccc21 has pIC50 of 2.93
